For each entry below, report its Bone, accumulated activity value.
test system: KB tumor-bearing athymic nude mice; assay: Biodistribution of 177Lu-RedFols in KB tumor-bearing mice; type: in vivo, mouse; details: 24 h p.i.
Numbers only, in % IA/g.

Consider the worked cases shown below.
COMPOUND: CN1c2c(nc(N)[nH]c2=O)NC[C@H]1CNc1ccc(C(=O)N[C@@H](CCC(=O)N[C@@H](CCCCNC(=O)CN2CCN(CC(=O)O)CCN(CC(=O)O)CCN(CC(=O)O)CC2)C(=O)N[C@@H](CCCCNC(=O)CCCCc2ccc(I)cc2)C(=O)O)C(=O)O)cc1 [[^177Lu]Lu-6R-RedFol-24, metal not drawn]
Bone, accumulated activity [% IA/g]: 0.49

COMPOUND: CN1c2c(nc(N)[nH]c2=O)NCC1CNc1ccc(C(=O)NC(CCC(=O)NC(CCCCNC(=O)CN2CCN(CC(=O)[O-])CCN(CC(=O)[O-])CCN(CC(=O)[O-])CC2)C(=O)NC(CCCCNC(=O)c2ccc(CNC(=O)CCCCc3ccc(I)cc3)cc2)C(=O)O)C(=O)O)cc1.[177Lu+3] (stereo not drawn) [[^177Lu]Lu-6S-RedFol-25]
Bone, accumulated activity [% IA/g]: 0.14

API: the following record is the query input.
[Q] I would be grateful if you could share the reported Bone, accumulated activity for CN1c2c(nc(N)[nH]c2=O)NC[C@H]1CNc1ccc(C(=O)N[C@@H](CCC(=O)N[C@@H](CCCCNC(=O)CN2CCN(CC(=O)O)CCN(CC(=O)O)CCN(CC(=O)O)CC2)C(=O)N[C@@H](CCCCNC(=O)c2ccc(CNC(=O)CCCc3ccc(I)cc3)cc2)C(=O)O)C(=O)O)cc1 [[^177Lu]Lu-6R-RedFol-3, metal not drawn] .
[A] 1.1
